# pull-down binding Z-score per entry
Test system: TO-N3-2 (biotin conjugate)
Experiment: pull-down binding Z-score (relative to library population); higher = stronger binding
Conditions: RNA library: Library-2
attribute.measured: pull-down binding Z-score

residue.sequence	system.name	reported
UAGUGCUAUGCAGACAAUGCUUUUCACUA	TO-N3-2 (biotin conjugate)	-0.838
UGAUAAAUUCA [SHAPE_invivo_SARS-CoV-2_Motif_325]	TO-N3-2 (biotin conjugate)	-1.19
AUCAUCUCUCCCUUGGAU [hsa-mir-3683]	TO-N3-2 (biotin conjugate)	-0.446
GCGGGAGCCAGGCCGC [hsa-mir-3185]	TO-N3-2 (biotin conjugate)	0.896
GCCAUUGCCGGU [IAV_invivo_HA_4_Motif_15+IAV_invivo_HA_4_Motif_15]	TO-N3-2 (biotin conjugate)	-0.0811
GUUGUCGCUUCCAAGAAAAGGACGAAGAUGACAAU [SHAPE_invitro_SARS-CoV-2_Motif_248]	TO-N3-2 (biotin conjugate)	0.292
CGAUAAACCCCUAAAUAGGGACUUUCCCG [hsa-mir-484]	TO-N3-2 (biotin conjugate)	-0.157
CCUGCUGUGUGAAACAAAAGUAAG [hsa-mir-302c]	TO-N3-2 (biotin conjugate)	0.474
GGGAGGUAAGAAGUCUCUGACUCCU [hsa-mir-5193]	TO-N3-2 (biotin conjugate)	-0.358
AACGGGGCGGGCCUGGGCGGGGUAA [G4_2A2_VEGF-Pu22-del]	TO-N3-2 (biotin conjugate)	5.22
UCUUCCCAAAGUUGAGAAAA [hsa-mir-320d-1]	TO-N3-2 (biotin conjugate)	-0.758
AAGGUGGAGUUCUGGGUGCUGUUUUCCCACUCU [hsa-mir-378i]	TO-N3-2 (biotin conjugate)	0.429
UGUGCCCCGUACCGGACAGG [hsa-mir-7160]	TO-N3-2 (biotin conjugate)	1.21
CAAUGUGUGAUAUCAGACAACUACUAUUUGUAGUUGAAGUUGUUGAUAAGUACUUUG [DMSMaPseq_invitro_SARS-CoV-2_Motif_268]	TO-N3-2 (biotin conjugate)	-0.156
GGAAGAAGGCUGAGGGAGAUGCCUUCUUCC [hsa-mir-6512]	TO-N3-2 (biotin conjugate)	1.02
ACCCGGGUGGUGGAGGUUGCAGUGAGCCAAGAUUGCGCCACUGCACUCCAGCCUGGGC [hsa-mir-1273a]	TO-N3-2 (biotin conjugate)	1.66
GUUUGUCUUAGUGGUUUAGAUUCUUUAGACACCUAUCCUUCUUUAGAAACUAUACAAAU	TO-N3-2 (biotin conjugate)	-0.533
AAGUCGAUUUCCAAAAGUGACUU [hsa-mir-3124]	TO-N3-2 (biotin conjugate)	-1.11
UGGACAGAAAUUUCCUUUUGAGGAAAUCUUUCCC [hsa-mir-4308]	TO-N3-2 (biotin conjugate)	-0.367
UAGAUGUUAUAAAAAUAUAUAUCUG [hsa-mir-4680]	TO-N3-2 (biotin conjugate)	-1.07
CUCCAAAAAGAG	TO-N3-2 (biotin conjugate)	-1.2
CGUGCAAGUUUAAGUUUUUGCACG [hsa-mir-4445]	TO-N3-2 (biotin conjugate)	-0.688
UUUUGAAAGUAACUUGGCGAAA [hsa-mir-548ad]	TO-N3-2 (biotin conjugate)	-0.299
CUUCCGAGUCAUAGGAAACUAUGACAUACAGAUCAACAGGGGCUCGCUUGAGCCCCCCAGCCAGUCGGAGG [mMTR1]	TO-N3-2 (biotin conjugate)	-0.704

Attribution: the supplement of paper PMC11865577
